B1: PhoQ; a variant is named by its letters at X, in order, P23837 (parent)
chain: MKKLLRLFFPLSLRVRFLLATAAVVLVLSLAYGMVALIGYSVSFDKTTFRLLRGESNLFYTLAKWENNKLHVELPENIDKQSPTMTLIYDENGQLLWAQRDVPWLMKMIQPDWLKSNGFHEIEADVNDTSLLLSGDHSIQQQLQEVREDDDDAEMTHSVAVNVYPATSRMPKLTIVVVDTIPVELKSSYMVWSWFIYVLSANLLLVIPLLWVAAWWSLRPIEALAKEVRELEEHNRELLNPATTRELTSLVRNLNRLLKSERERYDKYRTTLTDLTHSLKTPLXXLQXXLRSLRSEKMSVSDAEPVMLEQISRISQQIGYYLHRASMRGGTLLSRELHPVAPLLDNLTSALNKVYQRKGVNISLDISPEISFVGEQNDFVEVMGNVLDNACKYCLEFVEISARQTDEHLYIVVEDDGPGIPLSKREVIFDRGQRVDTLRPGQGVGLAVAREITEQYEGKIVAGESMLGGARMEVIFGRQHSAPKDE

variants of: B1; test: enrichment ratio after two sorts for PhoP signalling (ratio (wild type AVST 3.29)); higher = more functional; conditions: with PhoP (E. coli)
The full ranking holds about 140,000 sequences; the median of “enrichment ratio after two sorts for PhoP signalling” is about 0, and the highest 2% start at about 11. What follows is part of a selection rich in the highest values, with near analogues and random picks from the rest.
# enrichment ratio listing for each entry below
Reported Endpoint: enrichment ratio

>>> value_reported("LMAE")
"≤ 0.25"
>>> value_reported("HQNG")
"≤ 0.25"
>>> value_reported("FSMC")
16.1
>>> value_reported("SYGW")
"≤ 0.25"
>>> value_reported("TFMC")
16.5
>>> value_reported("FSTQ")
"≤ 0.25"
>>> value_reported("TGVE")
"≤ 0.25"
